All values here come from patent US20150368300A1.

test_target: DOT1L (925-1095) (human) (UniProt Q8TEK3)
experiment: SPR; DOT1L construct immobilised on CM5 chip
pKd: −log10 of the molar value.

binder	pKd
ENL (489-559), recombinant C-terminal domain of ENL (protein) GTYDKAYTDELVELHRRLMALRERNVLQQIVNLIEETGHFNVTNTTFDFDLFSLDETTVRKLQSCLEAVAT	5.21
AF9 (497-568), recombinant C-terminal domain of human AF9 (protein) GECDKAYLDELVELHRRLMTLRERHILQQIVNLIEETGHFHITNTTFDFDLCSLDKTTVRKLQSYLETSGTS	5.74
